Target: ATP-dependent translocase ABCB1 (Homo sapiens, UniProt P08183)
Sequence (P08183 whole entry): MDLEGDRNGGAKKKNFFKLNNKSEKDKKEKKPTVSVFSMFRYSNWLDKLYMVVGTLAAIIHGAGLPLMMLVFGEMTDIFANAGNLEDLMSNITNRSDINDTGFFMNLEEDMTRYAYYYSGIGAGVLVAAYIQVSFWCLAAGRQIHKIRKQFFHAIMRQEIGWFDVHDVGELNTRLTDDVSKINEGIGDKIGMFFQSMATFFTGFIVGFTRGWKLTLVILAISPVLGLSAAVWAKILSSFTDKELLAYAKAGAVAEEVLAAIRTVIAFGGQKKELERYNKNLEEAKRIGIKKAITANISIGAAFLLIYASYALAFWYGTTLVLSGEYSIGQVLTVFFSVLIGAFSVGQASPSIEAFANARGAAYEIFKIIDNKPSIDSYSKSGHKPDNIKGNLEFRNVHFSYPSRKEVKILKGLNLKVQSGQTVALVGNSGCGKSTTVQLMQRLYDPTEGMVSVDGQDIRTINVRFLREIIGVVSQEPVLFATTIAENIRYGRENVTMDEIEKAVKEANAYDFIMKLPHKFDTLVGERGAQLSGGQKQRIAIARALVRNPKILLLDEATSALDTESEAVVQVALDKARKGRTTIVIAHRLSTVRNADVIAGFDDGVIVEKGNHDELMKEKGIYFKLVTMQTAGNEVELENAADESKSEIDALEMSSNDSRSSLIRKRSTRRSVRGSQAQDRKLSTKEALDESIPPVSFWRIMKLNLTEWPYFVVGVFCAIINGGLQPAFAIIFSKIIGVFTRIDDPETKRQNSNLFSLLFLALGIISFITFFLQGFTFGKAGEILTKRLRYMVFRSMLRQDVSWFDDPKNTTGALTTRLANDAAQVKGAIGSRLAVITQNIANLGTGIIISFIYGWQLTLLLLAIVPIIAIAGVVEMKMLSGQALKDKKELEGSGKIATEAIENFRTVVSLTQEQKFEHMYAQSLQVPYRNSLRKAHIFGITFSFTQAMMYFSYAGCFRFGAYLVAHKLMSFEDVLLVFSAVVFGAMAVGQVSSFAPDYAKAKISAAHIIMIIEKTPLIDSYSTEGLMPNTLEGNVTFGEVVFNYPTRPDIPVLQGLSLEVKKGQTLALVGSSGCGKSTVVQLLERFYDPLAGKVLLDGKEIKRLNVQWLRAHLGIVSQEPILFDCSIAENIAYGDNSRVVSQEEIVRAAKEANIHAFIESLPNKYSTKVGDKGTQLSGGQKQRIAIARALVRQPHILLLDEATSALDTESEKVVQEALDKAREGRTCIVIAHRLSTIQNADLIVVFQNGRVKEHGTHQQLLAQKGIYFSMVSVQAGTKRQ
Test: Stimulation of P-gp in human multidrug resistant NCI-H460/R cells assessed as fluorescence activity ratio at 10 uM for 30 mins by Rho123 accumulation assay relative to control
Details: nci-h460, 0.5 h
Reported Ratio values are given for each entry in this list.
Note: the reply should be a number with no unit written.

# compound CC(C)C1=C(O)C(=O)[C@@]23O[C@@]2(C(=O)C(O)=C2C(C)(C)CCC[C@@]23C)C1=O ; its Ratio = 1.3

# compound CC(C)C1=C(O)C(=O)C2=C(C(=O)C(O)=C3C(C)(C)CCC[C@]23C)C1=O ; its Ratio = 1.93

# compound CC(C)c1cc2c(c(O)c1O)[C@@]1(O)CCCC(C)(C)[C@@H]1C(=O)C2=O ; its Ratio = 1.12

# compound CC(C)c1c(O)c(O)c2c(c1O)C(=O)C(O)=C1C(C)(C)CCC[C@@]12C ; its Ratio = 0.49

###

Assay: Selectivity index, ratio of mean fluorescence intensity for stimulation of P-gp in human multidrug resistant NCI-H460/R cells to mean fluorescence intensity for stimulation of P-gp in human NCI-H460 cells assessed as decrease in Rho123 accumulation at 10 uM for 72 mins
Assay type: functional
Conditions: 1.2 h
Reported Selectivity Index values are given for each entry in this list.
Note: the reply should be a number with no unit written.

# compound CC(C)C1=C(O)C(=O)[C@@]23O[C@@]2(C(=O)C(O)=C2C(C)(C)CCC[C@@]23C)C1=O ; its Selectivity Index = 11.16

# compound CC(C)c1cc2c(c(O)c1O)[C@@]1(O)CCCC(C)(C)[C@@H]1C(=O)C2=O ; its Selectivity Index = 10.26

# compound CC(C)c1c(O)c(O)c2c(c1O)C(=O)C(O)=C1C(C)(C)CCC[C@@]12C ; its Selectivity Index = 4.43

# compound CC(C)C1=C(O)C(=O)C2=C(C(=O)C(O)=C3C(C)(C)CCC[C@]23C)C1=O ; its Selectivity Index = 9.76

###

Molecular target: UniProt P08183
Assay: Stimulation of P-gp in human multi drug resistant NCI-H460/R cells assessed as decrease in Rho123 accumulation by measuring mean fluorescence intensity at 10 uM incubated for 30 mins in presence of rhodamine 123by flow cytometry
Details: nci-h460, 0.5 h
Endpoint Label: Flu intensity
Note: the reply should be a number with no unit written.

The examples below pair each entry with its known result.
Compound Structure String | Flu intensity
CC(C)c1cc2c(c(O)c1O)[C@@]1(O)CCCC(C)(C)[C@@H]1C(=O)C2=O | 573
CC(C)c1c(O)c(O)c2c(c1O)C(=O)C(O)=C1C(C)(C)CCC[C@@]12C | 253
CC(C)C1=C(O)C(=O)[C@@]23O[C@@]2(C(=O)C(O)=C2C(C)(C)CCC[C@@]23C)C1=O | 666.1

Here's the next entry for you.
# molecule CC(C)C1=C(O)C(=O)C2=C(C(=O)C(O)=C3C(C)(C)CCC[C@]23C)C1=O ; its Flu intensity = 991.3

###

Reported IC50 values are given for each entry in this list.
Test system: NCI-H460
Assay: Anticancer activity against human NCI-H460 cells assessed as reduction in cell viability measured after 72 hrs by MTT assay
Format: functional, cell-based
Conditions: NCI-H460, 72 h
Unit µM implied. Number only.

# molecule CC(C)C1=C(O)C(=O)[C@@]23O[C@@]2(C(=O)C(O)=C2C(C)(C)CCC[C@@]23C)C1=O ; its IC50 = 20.2

# molecule CC(=O)O[C@H]1C(=O)[C@@]2(C)[C@H]([C@H](OC(=O)c3ccccc3)[C@]3(O)C[C@H](OC(=O)[C@H](O)[C@@H](NC(=O)c4ccccc4)c4ccccc4)C(C)=C1C3(C)C)[C@]1(OC(C)=O)CO[C@@H]1C[C@@H]2O ; its IC50 = 0.0006

# molecule CC(C)c1c(O)c(O)c2c(c1O)C(=O)C(O)=C1C(C)(C)CCC[C@@]12C ; its IC50 = 14.1

# molecule CC(C)C1=C(O)C(=O)C2=C(C(=O)C(O)=C3C(C)(C)CCC[C@]23C)C1=O ; its IC50 = 23

###

Target: ATP-dependent translocase ABCB1 (Homo sapiens)
Assay: Stimulation of P-gp in human multidrug resistant NCI-H460/R cells assessed as fluorescence activity ratio at 5 uM for 30 mins by Rho123 accumulation assay relative to control
Details: nci-h460, 0.5 h
Reported Ratio values are given for each entry in this list.

The examples below pair each entry with its known result.
Compound Structure String | Endpoint Label | Reading
CC(C)c1c(O)c(O)c2c(c1O)C(=O)C(O)=C1C(C)(C)CCC[C@@]12C | Ratio | 2.45
CC(C)C1=C(O)C(=O)[C@@]23O[C@@]2(C(=O)C(O)=C2C(C)(C)CCC[C@@]23C)C1=O | Ratio | 1.39
CC(C)c1cc2c(c(O)c1O)[C@@]1(O)CCCC(C)(C)[C@@H]1C(=O)C2=O | Ratio | 1.16

Here's the next entry for you.
# compound CC(C)C1=C(O)C(=O)C2=C(C(=O)C(O)=C3C(C)(C)CCC[C@]23C)C1=O ; its Ratio = 1.3

###

Biological target: ATP-dependent translocase ABCB1 (Homo sapiens, UniProt P08183)
Assay: Stimulation of P-gp in human multi-drug resistant NCI-H460/R cells assessed as decrease in Rho123 accumulation by measuring mean fluorescence intensity at 5 uM incubated for 30 mins in presence of rhodamine 123 by flow cytometry
Conditions: nci-h460, 0.5 h
Endpoint Label: Flu intensity
Note: the reply should be a number with no unit written.

The examples below pair each entry with its known result.
Compound Structure String | Endpoint Label | Reading
CC(C)c1cc2c(c(O)c1O)[C@@]1(O)CCCC(C)(C)[C@@H]1C(=O)C2=O | Flu intensity | 595.3
CC(C)C1=C(O)C(=O)[C@@]23O[C@@]2(C(=O)C(O)=C2C(C)(C)CCC[C@@]23C)C1=O | Flu intensity | 711.6
CC(C)c1c(O)c(O)c2c(c1O)C(=O)C(O)=C1C(C)(C)CCC[C@@]12C | Flu intensity | 1258.8

Observed Flu intensity, ATP-dependent translocase ABCB1 (Homo sapiens, UniProt P08183), CC(C)C1=C(O)C(=O)C2=C(C(=O)C(O)=C3C(C)(C)CCC[C@]23C)C1=O : 669.6

###

Target: UniProtKB P08183
Assay: Stimulation of P-gp in human multidrug resistant NCI-H460/R cells assessed as fluorescence activity ratio at 10 uM for 72 mins by Rho123 accumulation assay relative to control
Details: nci-h460, 1.2 h
Endpoint Label: Ratio
Note: the reply should be a number with no unit written.

Compound Structure String | Reading
CC(C)C1=C(O)C(=O)[C@@]23O[C@@]2(C(=O)C(O)=C2C(C)(C)CCC[C@@]23C)C1=O | 0.34

Observed Ratio, UniProtKB P08183, CC(C)c1cc2c(c(O)c1O)[C@@]1(O)CCCC(C)(C)[C@@H]1C(=O)C2=O : 0.31

Observed Ratio, UniProtKB P08183, CC(C)c1c(O)c(O)c2c(c1O)C(=O)C(O)=C1C(C)(C)CCC[C@@]12C : 0.14

Observed Ratio, UniProtKB P08183, CC(C)C1=C(O)C(=O)C2=C(C(=O)C(O)=C3C(C)(C)CCC[C@]23C)C1=O : 0.3

###

Reported Selectivity Index values are given for each entry in this list.
Test: Selectivity index, ratio of mean fluorescence intensity for stimulation of P-gp in human multidrug resistant NCI-H460/R cells to mean fluorescence intensity for stimulation of P-gp in human NCI-H460 cells assessed as decrease in Rho123 accumulation at 5 uM for 72 mins
Format: functional
Details: 1.2 h
Note: the reply should be a number with no unit written.

The examples below pair each entry with its known result.
Compound Structure String | Endpoint Label | Reading
CC(C)c1c(O)c(O)c2c(c1O)C(=O)C(O)=C1C(C)(C)CCC[C@@]12C | Selectivity Index | 7
CC(C)C1=C(O)C(=O)C2=C(C(=O)C(O)=C3C(C)(C)CCC[C@]23C)C1=O | Selectivity Index | 11.18

# molecule CC(C)C1=C(O)C(=O)[C@@]23O[C@@]2(C(=O)C(O)=C2C(C)(C)CCC[C@@]23C)C1=O ; its Selectivity Index = 11.68

# molecule CC(C)c1cc2c(c(O)c1O)[C@@]1(O)CCCC(C)(C)[C@@H]1C(=O)C2=O ; its Selectivity Index = 10.72

###

Target: UniProt:P08183
Test: Stimulation of P-gp in human multidrug resistant NCI-H460/R cells assessed as decrease in Rho123 accumulation by measuring mean fluorescence intensity at 5 uM incubated for 72 hrs followed by rhodamine 123 measured after 30 mins by flow cytometry
Conditions: nci-h460, 72.5 h
Reported Flu intensity values are given for each entry in this list.
Note: the reply should be a number with no unit written.

The examples below pair each entry with its known result.
Compound Structure String | Endpoint Label | Reading
CC(C)c1c(O)c(O)c2c(c1O)C(=O)C(O)=C1C(C)(C)CCC[C@@]12C | Flu intensity | 173.5
CC(C)c1cc2c(c(O)c1O)[C@@]1(O)CCCC(C)(C)[C@@H]1C(=O)C2=O | Flu intensity | 265.9
CC(C)C1=C(O)C(=O)C2=C(C(=O)C(O)=C3C(C)(C)CCC[C@]23C)C1=O | Flu intensity | 277.3

Here's the next entry for you.
# compound CC(C)C1=C(O)C(=O)[C@@]23O[C@@]2(C(=O)C(O)=C2C(C)(C)CCC[C@@]23C)C1=O ; its Flu intensity = 289.7
